These data points were gathered from patent US20110144177A1.

// values below are reported most effective dose (the dose that increases the latency the most)
# Test system: scopolamine-induced amnesia
# Assay details: Scopolamine induced amnesia in multiple trial passive (inhibitory) avoidance assay
# Format: in vivo, rat
# Test parameters: i.p. immediately after training, scopolamine 0.75 mg/kg, retention 24 hours later
Quote the value and follow it with the unit of measurement.

{"columns": ["Molecule", "Assayed target", "Observed"],
 "data": [
  ["CCN(C)C(=O)Oc1cccc([C@H](C)N(C)C)c1 [Rivastigmine, reference compound]", "scopolamine-induced amnesia", "0.25 mg/kg"],
  ["C[C@H](Cc1ccccc1)NC(=O)Oc1ccc2c(c1)[C@]1(C)CCN(C)[C@@H]1N2C [Compound 14]", "scopolamine-induced amnesia", "0.02 mg/kg"],
  ["C[C@H](Cc1ccccc1)NC(=O)Oc1cccc([C@H](C)N(C)C)c1 [Compound 9]", "scopolamine-induced amnesia", "0.1 mg/kg"],
  ["CC(Cc1ccccc1)NC(=O)Oc1cccc([C@H](C)N(C)C)c1 (some centres unmarked) [Compound 3]", "scopolamine-induced amnesia", "1.4 mg/kg"]
]}

Moving on to another molecule below.
Item: C[C@H](Cc1ccccc1)N(C)C(=O)Oc1cccc([C@H](C)N(C)C)c1 [Compound 7] | most effective dose (the dose that increases the latency the most): 0.25 mg/kg
